Assay: Tryptophan fluorescent binding assay
Settings: tryptophan fluorescence; 50 µM peptide, lipid titrated 0-5000 µM; phosphate buffered saline 1X, pH 7.4; values as lipid per peptide
Peptide text beside a SMILES is read from it.
measured_parameter: Lipid Concentration-induced 50% Peptide Binding (L/P), 3POPC/1POPG Vesicle
Write down the numeric answer in L/P and omit the unit.

Before answering, review these 4 worked examples.
{"compound": "CC(C)C[C@H](NC(=O)CN)C(=O)N[C@@H](CC(C)C)C(=O)N[C@@H](CCC(=O)O)C(=O)N[C@@H](CC(C)C)C(=O)N[C@@H](CC(C)C)C(=O)N[C@@H](CCC(=O)O)C(=O)N[C@@H](CC(C)C)C(=O)N[C@@H](CC(C)C)C(=O)N[C@@H](CC(C)C)C(=O)N[C@@H](Cc1c[nH]cn1)C(=O)N[C@@H](C)C(=O)N[C@@H](C)C(=O)NCC(=O)N[C@@H](Cc1c[nH]c2ccccc12)C(N)=O [EEH] (H-GLLELLELLLHAAGW-NH2)", "measure_unit": "L/P", "measured_number": 0.50}
{"compound": "CC(C)C[C@H](NC(=O)CN)C(=O)N[C@@H](CC(C)C)C(=O)N[C@@H](CC(=O)O)C(=O)N[C@@H](CC(C)C)C(=O)N[C@@H](CC(C)C)C(=O)N[C@@H](CCCCN)C(=O)N[C@@H](CC(C)C)C(=O)N[C@@H](CC(C)C)C(=O)N[C@@H](CC(C)C)C(=O)N[C@@H](CCC(=O)O)C(=O)N[C@@H](C)C(=O)N[C@@H](C)C(=O)NCC(=O)N[C@@H](Cc1c[nH]c2ccccc12)C(N)=O [DKE] (H-GLLDLLKLLLEAAGW-NH2)", "measure_unit": "L/P", "measured_number": 0.46}
{"compound": "CC(C)C[C@H](NC(=O)CN)C(=O)N[C@@H](CC(C)C)C(=O)N[C@@H](CCCCN)C(=O)N[C@@H](CC(C)C)C(=O)N[C@@H](CC(C)C)C(=O)N[C@@H](Cc1c[nH]cn1)C(=O)N[C@@H](CC(C)C)C(=O)N[C@@H](CC(C)C)C(=O)N[C@@H](CC(C)C)C(=O)N[C@@H](CCC(=O)O)C(=O)N[C@@H](C)C(=O)N[C@@H](C)C(=O)NCC(=O)N[C@@H](Cc1c[nH]c2ccccc12)C(N)=O [KHE] (H-GLLKLLHLLLEAAGW-NH2)", "measure_unit": "L/P", "measured_number": 0.71}
{"compound": "CC(C)C[C@H](NC(=O)CN)C(=O)N[C@@H](CC(C)C)C(=O)N[C@@H](CCCCN)C(=O)N[C@@H](CC(C)C)C(=O)N[C@@H](CC(C)C)C(=O)N[C@@H](CCC(=O)O)C(=O)N[C@@H](CC(C)C)C(=O)N[C@@H](CC(C)C)C(=O)N[C@@H](CC(C)C)C(=O)N[C@@H](CCCCN)C(=O)N[C@@H](C)C(=O)N[C@@H](C)C(=O)NCC(=O)N[C@@H](Cc1c[nH]c2ccccc12)C(N)=O [KEK] (H-GLLKLLELLLKAAGW-NH2)", "measure_unit": "L/P", "measured_number": 0.50}

Next:
Exercise: Give reported Lipid Concentration-induced 50% Peptide Binding (L/P), 3POPC/1POPG Vesicle value for CC(C)C[C@H](NC(=O)CN)C(=O)N[C@@H](CC(C)C)C(=O)N[C@@H](CC(=O)O)C(=O)N[C@@H](CC(C)C)C(=O)N[C@@H](CC(C)C)C(=O)N[C@@H](CCCCN)C(=O)N[C@@H](CC(C)C)C(=O)N[C@@H](CC(C)C)C(=O)N[C@@H](CC(C)C)C(=O)N[C@@H](Cc1c[nH]cn1)C(=O)N[C@@H](C)C(=O)N[C@@H](C)C(=O)NCC(=O)N[C@@H](Cc1c[nH]c2ccccc12)C(N)=O [DKH] (H-GLLDLLKLLLHAAGW-NH2)
Key: 0.46

From: paper PMC9069370
